Target: calcium channel (Oryctolagus cuniculus)
Construct: from tissue; host or cells: rabbit heart membrane preparation
Sequence (P15381 whole entry, other chains not shown): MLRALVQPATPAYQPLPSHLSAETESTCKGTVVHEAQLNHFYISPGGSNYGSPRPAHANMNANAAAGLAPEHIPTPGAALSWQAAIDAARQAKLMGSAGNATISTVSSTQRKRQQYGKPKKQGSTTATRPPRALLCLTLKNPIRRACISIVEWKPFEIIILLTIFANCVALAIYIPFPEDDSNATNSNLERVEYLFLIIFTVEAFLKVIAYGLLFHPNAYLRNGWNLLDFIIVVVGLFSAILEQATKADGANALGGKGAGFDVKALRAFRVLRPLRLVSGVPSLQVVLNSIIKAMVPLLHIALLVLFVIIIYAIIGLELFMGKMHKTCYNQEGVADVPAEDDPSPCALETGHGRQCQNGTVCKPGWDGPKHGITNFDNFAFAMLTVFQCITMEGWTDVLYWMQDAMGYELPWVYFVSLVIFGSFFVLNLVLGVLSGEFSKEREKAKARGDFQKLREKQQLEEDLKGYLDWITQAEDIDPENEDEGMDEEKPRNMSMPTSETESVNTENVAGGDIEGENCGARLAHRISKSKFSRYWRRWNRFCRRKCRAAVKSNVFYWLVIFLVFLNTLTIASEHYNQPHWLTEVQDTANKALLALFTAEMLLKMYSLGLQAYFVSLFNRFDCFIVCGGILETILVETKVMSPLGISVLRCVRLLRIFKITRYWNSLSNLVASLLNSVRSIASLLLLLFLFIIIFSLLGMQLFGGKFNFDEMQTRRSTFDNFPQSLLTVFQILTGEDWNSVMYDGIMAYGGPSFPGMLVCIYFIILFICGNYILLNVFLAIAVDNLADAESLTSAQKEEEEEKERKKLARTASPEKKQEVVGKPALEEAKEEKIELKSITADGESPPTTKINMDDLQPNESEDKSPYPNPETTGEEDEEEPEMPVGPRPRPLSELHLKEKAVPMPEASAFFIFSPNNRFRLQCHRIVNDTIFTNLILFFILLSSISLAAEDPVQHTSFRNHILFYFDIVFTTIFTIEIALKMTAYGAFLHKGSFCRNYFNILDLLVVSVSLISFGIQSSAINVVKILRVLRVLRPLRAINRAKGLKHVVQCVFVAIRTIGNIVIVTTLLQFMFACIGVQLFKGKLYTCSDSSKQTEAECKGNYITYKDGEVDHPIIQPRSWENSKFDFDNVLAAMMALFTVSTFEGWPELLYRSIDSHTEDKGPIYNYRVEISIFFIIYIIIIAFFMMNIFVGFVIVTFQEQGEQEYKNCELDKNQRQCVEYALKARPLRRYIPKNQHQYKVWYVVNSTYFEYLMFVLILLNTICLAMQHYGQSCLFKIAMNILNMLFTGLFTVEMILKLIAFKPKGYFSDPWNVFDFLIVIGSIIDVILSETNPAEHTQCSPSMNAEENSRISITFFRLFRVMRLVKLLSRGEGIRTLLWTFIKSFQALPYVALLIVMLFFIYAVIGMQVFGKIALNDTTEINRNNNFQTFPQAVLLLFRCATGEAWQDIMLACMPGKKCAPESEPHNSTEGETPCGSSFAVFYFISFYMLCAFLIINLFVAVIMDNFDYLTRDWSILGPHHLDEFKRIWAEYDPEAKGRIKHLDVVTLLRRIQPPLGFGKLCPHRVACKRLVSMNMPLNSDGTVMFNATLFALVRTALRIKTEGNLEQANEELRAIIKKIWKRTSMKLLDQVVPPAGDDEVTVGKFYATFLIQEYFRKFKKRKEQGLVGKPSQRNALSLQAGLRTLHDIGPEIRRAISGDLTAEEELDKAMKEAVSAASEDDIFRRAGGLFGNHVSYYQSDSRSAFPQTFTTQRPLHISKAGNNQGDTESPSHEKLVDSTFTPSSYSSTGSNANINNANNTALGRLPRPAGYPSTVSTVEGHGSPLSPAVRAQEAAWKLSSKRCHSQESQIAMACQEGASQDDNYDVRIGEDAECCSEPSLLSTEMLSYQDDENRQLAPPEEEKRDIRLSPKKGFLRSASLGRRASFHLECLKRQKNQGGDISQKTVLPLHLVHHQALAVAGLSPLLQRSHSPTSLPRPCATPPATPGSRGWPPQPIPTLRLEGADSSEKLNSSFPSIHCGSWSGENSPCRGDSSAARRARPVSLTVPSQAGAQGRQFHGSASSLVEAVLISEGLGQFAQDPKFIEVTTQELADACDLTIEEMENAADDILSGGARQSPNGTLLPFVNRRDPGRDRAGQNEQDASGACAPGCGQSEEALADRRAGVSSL
Sequence (P13806 27-960 partner limits assumed, other chains not shown): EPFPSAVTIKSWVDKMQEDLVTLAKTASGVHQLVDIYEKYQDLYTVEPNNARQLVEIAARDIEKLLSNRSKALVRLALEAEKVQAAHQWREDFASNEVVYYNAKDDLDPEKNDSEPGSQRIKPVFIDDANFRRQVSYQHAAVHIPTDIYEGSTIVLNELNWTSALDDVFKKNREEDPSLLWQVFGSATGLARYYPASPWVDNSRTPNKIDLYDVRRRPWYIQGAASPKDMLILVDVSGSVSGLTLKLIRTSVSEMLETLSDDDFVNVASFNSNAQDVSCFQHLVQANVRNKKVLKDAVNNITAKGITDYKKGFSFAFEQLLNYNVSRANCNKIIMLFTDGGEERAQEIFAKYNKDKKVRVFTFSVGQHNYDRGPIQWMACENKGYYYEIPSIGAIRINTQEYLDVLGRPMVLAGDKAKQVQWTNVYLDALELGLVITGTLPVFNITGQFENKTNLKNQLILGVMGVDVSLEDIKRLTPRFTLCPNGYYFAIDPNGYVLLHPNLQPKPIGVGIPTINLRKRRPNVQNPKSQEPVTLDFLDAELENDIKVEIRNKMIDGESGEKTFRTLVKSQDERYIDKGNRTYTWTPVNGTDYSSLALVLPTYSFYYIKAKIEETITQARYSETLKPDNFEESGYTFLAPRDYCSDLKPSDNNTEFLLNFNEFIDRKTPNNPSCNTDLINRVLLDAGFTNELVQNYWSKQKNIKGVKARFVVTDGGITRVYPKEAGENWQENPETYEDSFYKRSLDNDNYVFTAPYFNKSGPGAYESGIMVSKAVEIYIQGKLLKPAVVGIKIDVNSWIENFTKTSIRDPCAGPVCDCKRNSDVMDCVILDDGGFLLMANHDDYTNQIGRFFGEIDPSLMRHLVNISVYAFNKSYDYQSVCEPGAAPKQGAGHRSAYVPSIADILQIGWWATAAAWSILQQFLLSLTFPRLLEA
Sequence (P13806 961-1106 partner limits assumed, other chains not shown): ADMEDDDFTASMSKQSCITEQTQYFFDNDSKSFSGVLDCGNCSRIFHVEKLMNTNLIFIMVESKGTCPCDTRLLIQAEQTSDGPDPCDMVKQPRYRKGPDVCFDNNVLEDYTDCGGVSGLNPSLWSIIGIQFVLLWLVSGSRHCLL
Experiment: Assay for Inhibition of Nitrendipine Binding (3H-nitrendipine, heart membranes)
Parameters: species or system rabbit
Conditions: Table 1, compounds of Formula I; 3H-nitrendipine displacement, rabbit heart membranes; read-out: Nitrendipine Binding Assay IC50
Method: Assay for Inhibition of Nitrendipine Binding Female, New Zealand white rabbits (1-2 kg) are sacrificed by cervical dislocation, and the heart is immediately removed, cleaned and chopped into small pieces. The tissue is homogenized in 5×times volume of 0.05M Hepes buffer, pH 7.4. The homogenate is centrifuged at 4000 g for 10 minutes, and the supernatant is re-centrifuged at 42,000×g for 90 minutes. […] After rinsing, the filters are dried and counted in a liquid scintillation counter. […]
pIC50: −log10 of the molar value.

- compound: "CC1=C(C(=O)OCCN(C)Cc2ccccc2)C(c2cccc([N+](=O)[O-])c2)C2=C(CS(=O)(=O)c3ccccc3S2(=O)=O)N1 (stereo not drawn)"
  pIC50: 7.62
- compound: "COC(=O)C1=C(C)NC2=C(C1c1ccccc1[N+](=O)[O-])S(=O)(=O)c1ccccc1S(=O)(=O)C2 (stereo not drawn)"
  pIC50: 7.44
- compound: "CC1=C(C(=O)OCCN(C)Cc2ccccc2)C(c2c(F)cccc2Cl)C2=C(CS(=O)(=O)c3ccccc3S2(=O)=O)N1 (stereo not drawn)"
  pIC50: 7.21
- compound: "CC1=C(C(=O)OCCN(C)Cc2ccccc2)C(c2ccccc2[N+](=O)[O-])C2=C(CS(=O)(=O)c3ccccc3S2(=O)=O)N1 (stereo not drawn)"
  pIC50: 7.47
- compound: "COC(=O)C1=C(C)NC2=C(C1c1cccc(Cl)c1Cl)S(=O)(=O)c1ccccc1[S+]([O-])C2 (stereo not drawn)"
  pIC50: 8.10
- compound: "COC(=O)C1=C(C)NC2=C(C1c1cccc(C(F)(F)F)c1F)S(=O)(=O)c1ccccc1S(=O)(=O)C2 (stereo not drawn)"
  pIC50: 7.85
- compound: "COC(=O)C1=C(C)NC2=C(C1c1cccc(Cl)c1)S(=O)(=O)c1ccccc1S(=O)(=O)C2 (stereo not drawn)"
  pIC50: 8.00
- compound: "CC1=C(C(=O)OCCN(C)Cc2ccccc2)C(c2cccc(Cl)c2Cl)C2=C(CS(=O)(=O)c3ccccc3S2(=O)=O)N1 (stereo not drawn)"
  pIC50: 7.70
- compound: "COC(=O)C1=C(C)NC2=C(C1c1ccccc1Cl)S(=O)(=O)c1ccccc1S(=O)(=O)C2 (stereo not drawn)"
  pIC50: 8.05
- compound: "COC(=O)C1=C(C)NC2=C(C1c1cccc([N+](=O)[O-])c1)S(=O)(=O)c1ccccc1S(=O)(=O)C2 (stereo not drawn)"
  pIC50: 7.70
- compound: "CC1=C(C(=O)OCCN(C)Cc2ccccc2)C(c2cccc(C(F)(F)F)c2F)C2=C(CS(=O)(=O)c3ccccc3S2(=O)=O)N1 (stereo not drawn)"
  pIC50: 7.24
- compound: "COC(=O)C1=C(C)NC2=C(C1c1cccc(Cl)c1Cl)S(=O)(=O)c1ccccc1S(=O)(=O)C2 (stereo not drawn)"
  pIC50: 7.66
